- protocol_details: Extended Characterization of HPGD Inhibitors: PGE2 Assay in LNCaP Cells
- condition_info: PGE2 HTRF level, 16 h; series mostly up to 100 µM
- Description: The central role of HPGD is to inactivate prostaglandins such as prostaglandin E2 (PGE2) or prostaglandin D2 (PGD2). […] A549 cells, LNCaP cells or media were dispensed in 384-well plates (ProxiPlate-384 Plus, PerkinElmer, Shelton, CT) at 5,000 cells/9.9 uL/well using a CappAero384 multichannel pipette (Odense, Denmark). […] Time-resolved fluorescence intensity (320 nm excitation, 615 and 665 nm emission) was measured using an Envision plate reader (PerkinElmer). […]
Records with an inconclusive call do not appear. Active and inactive are the calls of the source. Calls follow the shape of the dose curve; as a rule, active = well fitted activation curve with a large enough effect; inconclusive = small, poorly fitted or top-dose-only effect; inactive = no such curve, though single readings can be large or run the other way.
Would you mind answering with one of these outcomes? 1 for active, 0 for inactive

Record request — test call for O=C(c1ccc2c(c1)ncn2-c1cccc(C(F)(F)F)c1)N1CCCCC1
1

Here is another molecule to look at.
Record request — test call for Cc1cc(-c2nnc3n2CCCCC3)c(C)n1-c1ccc(F)cc1
1

====

- protocol_details: Extended Characterization of HPGD Inhibitors: PGE2 Assay in LNCaP Cells
- condition_info: PGE2 HTRF level, 16 h; series mostly up to 100 µM
Records with an inconclusive call do not appear. Calls of active or inactive are those of the source. The call rests on the fitted dose curve; in most records, active means well fitted activation curve with a large enough effect; inconclusive means small, poorly fitted or top-dose-only effect; inactive means no such curve, though single readings can be large or run the other way.
Would you mind answering with one of these outcomes? active, inactive

Record request — test call for c1ccc(-n2cc(-c3nnc4n3CCCCC4)cn2)cc1
inactive

Record request — test call for CC(C)(C)c1ccc(CSc2nc3ncc(Br)cc3[nH]2)cc1
active

Record request — test call for Cc1ccc(-n2c(C)cc(-c3nnc4n3CCCCC4)c2C)cc1
active

Record request — test call for Clc1ccccc1CSc1nc2ncc(Br)cc2[nH]1
active

Record request — test call for O=C(c1ccc2c(c1)ncn2-c1ccc(Cl)cc1)N1CCCCC1
active

Here is another compound to look at.
Record request — test call for O=C(c1ccc2c(c1)ncn2-c1ccccc1)N1CCCCC1
active

====

Catalogue of Potency values
- protocol_details: Extended Characterization of HPGD Inhibitors: PGE2 Assay in LNCaP Cells
- condition_info: PGE2 HTRF level, 16 h; series mostly up to 100 µM
Results filed as inconclusive are left out. Calls of active or inactive are those of the source. The call rests on the fitted dose curve; in most records, active means well fitted activation curve with a large enough effect; inconclusive means small, poorly fitted or top-dose-only effect; inactive means no such curve, though single readings can be large or run the other way.

Query: Potency; subject: Cc1ccccc1CSc1nc2ncc(Br)cc2[nH]1
22.2 µM (active)

Query: Potency; subject: COc1ccc(-n2cnc3cc(C(=O)N4CCCCC4)ccc32)cc1
0.884 µM (active)

Query: Potency; subject: Brc1cnc2nc(SCc3ccncc3)[nH]c2c1
4.43 µM (active)

Continuing:
Query: Potency; subject: COc1ccccc1-n1cnc2cc(C(=O)N3CCCCC3)ccc21
1.76 µM (active)
